assay target: Solute carrier family 2, facilitated glucose transporter member 1 (Homo sapiens)
experiment notes: ST_JUDE_LEISH: Cytotoxicity at 2uM final concentration against transgenic Leishmania Mexicana promastigotes LmGLUT1 that are glucose transport deficient and complemented with the human glucose transporter GLUT1. Activity is measured by DNA content using SYBR green in vitro
Assay type: functional
Reported inhibition values for a set of molecules
measured parameter: inhibition (%)

1) Cc1cccc2nc(-c3cccc(-c4ccc(NC(=O)C(C)(C)c5ccccn5)cc4)c3)[nH]c12 : 3.05
2) CC1(C)NC(N)=NC(=N)N1OCc1cc(Cl)cc2c1OCOC2 : 2.73
3) Cc1cc(NC(=O)NC(=N)N)ccc1Cl : 6.27
4) C=CCOC(=O)O[C@@H]1[C@@H](OC(=O)OCC=C)[C@@H](OC)O[C@H](COC(c2ccccc2)(c2ccccc2)c2ccccc2)[C@H]1OC(=O)OCC=C : 4.46
5) O=C1Nc2ccccc2/C1=N/NC(=S)N1CCOCC1 : -0.69
6) O=C(Nc1cc(F)c(F)c(-c2cccnc2)c1)N1CCc2cc(Cl)c(Cl)cc21 : 0.67
7) CS(=O)(=O)CCNCc1nc(-c2ccc3ncnc(Nc4ccc(OCc5cccc(F)c5)c(Cl)c4)c3c2)cs1 : 3.7
8) CC(C)NC(C)(C)CN(Cc1ccc(-c2ccc(C(F)(F)F)cc2)cc1)C(=O)Cn1c(CCc2cccc(F)c2F)nc(=O)c2ccccc21 : 0.37
9) CCCC(C(=O)OCCNC)(c1ccccc1)c1ccccc1 : 1.4
10) COc1ccc2nccc(N/N=C/c3ccccc3[N+](=O)[O-])c2c1 : 2.92
11) COc1cccc(Nc2nc(C)cc(NC3CCN(Cc4ccccc4)CC3)n2)c1 : 5.81
12) CC(=NNC(=N)N)c1ccc2c(c1)Cc1ccccc1-2 : -1.01
13) COc1cc2c(cc1S(=O)(=O)c1ccc(NC(=O)c3cccc(C(F)(F)F)c3)cc1)CCN(C)CC2 : 1.16
14) CCN(CC)CCN(Cc1ccc(-c2ccc(C(F)(F)F)cc2)cc1)C(=O)Cn1c(SCc2ccc(F)cc2)nc(=O)c2ccccc21 : 4.02
15) CCOc1cc(C)ccc1NC1CCN(CCCCNC(=O)c2ccc(NC(=O)c3ccc(Cl)cc3)cc2)CC1 : -0.53
16) CCOC(=O)[C@H](Cc1cc([N+](=O)[O-])c(Oc2ccc(OC)c(Cc3ccc(OC)c(C(C)C)c3)c2)c([N+](=O)[O-])c1)NC(=O)C(F)(F)F : 10.8
17) Clc1ccc(CNCCCCCCCNCc2ccc(Cl)c(Cl)c2)cc1Cl : -1.86
18) CCN(C)c1cc(C(=O)N[C@@H](Cc2ccccc2)[C@H](O)CNC(C)(C)c2cccc(OC)c2)cc(N2CCCC2=O)c1 : 1.69
19) COc1ccccc1-c1sccc1C(=O)NC1(c2cc(Cl)cc(Cl)c2)CCCC1 : 1.22
20) Cc1ccc(Cn2ncc(NC3CCNCC3)c(Cl)c2=O)cc1NC(=O)Nc1ccc(-c2ccccc2)cc1 : 5.14
21) O=C(NCc1ccc(Cl)cc1)c1ccc(C(=O)NCC2CCCN2CC2CCCCC2)cc1 (configuration not stated) : 2.97
22) COc1cccc(-c2nn(C)c3sc(C(=O)Nc4cccnc4)cc23)c1 : 0.24
23) CNC(=O)C(C)N(c1ccc(Cl)cc1)c1nc(C(C)(C)C)cs1 (configuration not stated) : -1.9
24) Cc1ccc(O)cc1Nc1ccnc2cc(-c3ccccc3)ccc12 : 7.87
25) FC(F)(F)c1ccc2[nH]c(-c3ccc(-c4cccc(CNCCc5ccncc5)c4)s3)nc2c1 : 0.52
26) CNCCNCc1ccc(-c2ccc(-c3nc4cc(C(F)(F)F)ccc4[nH]3)cc2)cc1 : -0.49
27) CC1CN(c2cnn(C/C=C/c3ccc(NC(=O)c4ccc(Cl)cc4)cc3)c(=O)c2Cl)CC(C)N1 (configuration not stated) : -0.22
28) Cn1cc(Br)c(-c2cccc(Nc3ccnc4cc(-c5nccs5)ccc34)c2)n1 : 3.67
29) Cc1ccc(NC(=O)c2ccc(N3CCC(c4ccccc4C)CC3)nc2)cc1 : 11.9
30) COc1ccc(CNc2nccc3ccc(-c4ccc(N)nc4)cc23)cc1 : -2.02
31) Oc1ccc(Cl)cc1CN1CCC2(CCCN(CC3CCC3)C2)C1 (configuration not stated) : -3
32) CN(C)Cc1ccc(-c2ccc(NC(=O)c3ccc4c(=O)n(Cc5ccoc5)cnc4c3)cc2)cc1 : 1.36

* * *

assay target: Solute carrier family 2, facilitated glucose transporter member 1 (Homo sapiens) (UniProt P11166)
Sequence (P11166 whole entry): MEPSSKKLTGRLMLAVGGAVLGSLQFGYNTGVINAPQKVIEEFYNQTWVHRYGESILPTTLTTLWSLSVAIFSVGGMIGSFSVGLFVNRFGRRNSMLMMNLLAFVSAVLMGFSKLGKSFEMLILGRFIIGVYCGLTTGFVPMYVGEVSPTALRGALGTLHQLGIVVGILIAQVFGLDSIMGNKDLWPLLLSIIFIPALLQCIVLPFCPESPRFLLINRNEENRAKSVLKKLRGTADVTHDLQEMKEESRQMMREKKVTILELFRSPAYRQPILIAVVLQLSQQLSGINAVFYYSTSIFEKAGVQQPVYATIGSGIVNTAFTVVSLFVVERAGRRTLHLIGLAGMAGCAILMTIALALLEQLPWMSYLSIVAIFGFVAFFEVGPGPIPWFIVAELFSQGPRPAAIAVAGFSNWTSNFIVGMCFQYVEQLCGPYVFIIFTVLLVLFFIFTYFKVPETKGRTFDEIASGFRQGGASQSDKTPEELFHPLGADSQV
experiment notes: ST_JUDE_LEISH: Cytotoxicity at 2uM final concentration against transgenic Leishmania Mexicana promastigotes LmGLUT1 that are glucose transport deficient and complemented with the human glucose transporter GLUT1. Activity is measured by DNA content using SYBR green in vitro
Type: functional
measured parameter: inhibition (%)

1) O=C(CC(=O)Nc1cc(Cl)cc(Cl)c1)Nc1cc(Cl)cc(Cl)c1 : -1.77
2) Fc1ccc2[nH]c(-c3cccc(-c4cccc(CN5CCN(c6ccncc6)CC5)c4)c3)nc2c1 : 0.24
3) CC(=O)COc1c(C2CCN(CCCCNC(=O)c3ccc(-c4ccc(C(F)(F)F)cc4)cc3)CC2)ccc2c1CCCC2 : 0.29
4) O=C(Nc1ccc2c(c1)CCN2C1CCN(Cc2csc3ccccc23)C1)c1ccco1 (centres undefined) : 2.05

* * *

assay target: Glucose transporter (Leishmania mexicana)
experiment notes: ST_JUDE_LEISH: Cytotoxicity at 2uM final concentration against transgenic Leishmania Mexicana promastigotes LmGT2 that are glucose transport deficient and complemented with the L. Mexicana glucose transporter 2. Activity is measured by DNA content using SYBR green in vitro
Assay type: functional
Reported inhibition values for a set of compounds
measured parameter: inhibition (%)

1) COc1ccc(Cn2c(Nc3cccc(C(F)(F)F)c3)nc3cc(C(=O)NCCN4CCCC4)ccc32)cc1Cl : 0.72
2) CCCN(CCC)CCCCC(C)Nc1c2ccc(Cl)cc2nc2ccc(OC)cc12 (stereo not drawn) : 9.34
3) CCC1(C)N=C(N)N=C(N)N1c1ccccc1 (stereo not drawn) : -3.1
4) CC1(C)OC[C@]2(C)[C@@H](CC[C@]3(C)C4=CC(=O)CCC4CC[C@@H]23)O1 (stereo partly drawn) : 2.59
5) CCOc1ccc2[nH]c(C)cc(=NN=Cc3ccncc3)c2c1 : -2.05
6) CC(C)CNCc1ccc(-c2ccc(CN(C(=O)NCCc3ccccc3)C3CCN(Cc4ccccc4)CC3)cc2)cc1 : 47.2
7) Cc1c(OC(C)C)nc2ccccc2c1C(=O)N[C@H](c1cccc(F)c1)C1CC1 : -0.32
8) COC(=O)c1ccc(CCCNCC(O)c2cccc(C(F)(F)F)c2)cc1 (stereo not drawn) : 6.4

* * *

assay target: Solute carrier family 2, facilitated glucose transporter member 1 (Homo sapiens) (UniProt P11166)
experiment notes: ST_JUDE_LEISH: Cytotoxicity at 2uM final concentration against transgenic Leishmania Mexicana promastigotes LmGLUT1 that are glucose transport deficient and complemented with the human glucose transporter GLUT1. Activity is measured by DNA content using SYBR green in vitro
Format: functional
measured parameter: inhibition (%)

1) Cc1cc(CN2CC[C@H](NC(=O)c3ccc(Cl)c(Cl)c3)C2)ccc1OC1CCN(C)C1 (some centres undefined) : -0.24
2) Cc1cccc2nc(C3CCN(CC4CCN(C(=O)/C=C/c5ccc(Cl)c(Cl)c5)CC4)CC3)[nH]c12 : 10.9
3) O=C(Nc1ccc(Oc2ccccc2)cc1)N[C@H]1CCN(Cc2ccc(OCCCN3CCCCC3)cc2)C1 : -2.21
4) O=C(Nc1ccc(N2CCCCC2)c(Cl)c1)c1ccc(Br)o1 : 1.4
5) COc1ccc2nccc([C@@H](O)CN3CCC(NC(=O)/C=C/c4cc(F)cc(NC(C)=O)c4)CC3)c2c1 : 5.61
6) COc1cccc2c(N/N=C/c3ccccc3[N+](=O)[O-])ccnc12 : 4.82
7) O=C1C(c2ccccc2)=C(Nc2cccc(OC(F)(F)C(F)F)c2)c2ccccc21 : 5.8
8) Cc1ccc(C(=O)Nc2cccc(CN3CCCN(Cc4ccc(O)cc4)CC3)c2)cc1 : 1.89
9) Cc1cc(N2CCCC2)nc(Nc2ccc(NC(=O)c3ccc4c(c3)OCO4)cc2)n1 : 13.5
10) COc1ccccc1N1CCN(C(C(=O)NCc2ccc3c(c2)OCO3)c2ccc3c(c2)OCCCO3)CC1 (centres undefined) : 1.2
11) O=S(=O)(NCCN1CCCC1)c1ccc(-c2ccc(CN3Cc4ccccc4C3)cc2)s1 : -0.63
12) O=C(C=Cc1ccc(Cl)c(Cl)c1)NCCCCCN1CCCC(CCCNS(=O)(=O)c2cccc3cccnc23)C1 (centres undefined) : 5.85
13) O=[N+]([O-])c1cccc(CNC2CCN(Cc3ccc4ccccc4c3)CC2)c1 : 19
14) CS(=O)(=O)Cc1ccc(Nc2nccc(-c3c(-c4cccc(C(=O)Nc5c(F)cccc5F)c4)nn4ccccc34)n2)cc1 : 21.4
15) CCN(CC)CCN(Cc1ccc(-c2ccc(C(F)(F)F)cc2)cc1)C(=O)Cn1c(CCc2ccc(F)c(F)c2)nc(=O)c2ccccc21 : 1.89
16) CN1CCCN(Cc2ccc(-c3cccc(NC(=O)c4cccc(Cl)c4)c3)cc2)CC1 : 16.5
17) Cc1ccc2nc(-c3ccc(C(=O)NC4CCN(Cc5ccccc5)CC4)cc3)[nH]c2c1C : 11.5
18) O=C(NC1CCN(CCC(NC(=O)c2ccccc2)c2ccc(Cl)c(Cl)c2)CC1)c1ccc(Cl)cc1 (centres undefined) : 3.39
19) O=C(c1ccc(F)cc1)N1CCOC(CCN2CCC(c3ccccc3)CC2)(c2ccc(Cl)c(Cl)c2)C1 (centres undefined) : 0.53
